Would you mind telling me the reported IC50 of each entry?
Target: UniProtKB Q13285
Sequence (Q13285 whole entry, the tested form may be a part): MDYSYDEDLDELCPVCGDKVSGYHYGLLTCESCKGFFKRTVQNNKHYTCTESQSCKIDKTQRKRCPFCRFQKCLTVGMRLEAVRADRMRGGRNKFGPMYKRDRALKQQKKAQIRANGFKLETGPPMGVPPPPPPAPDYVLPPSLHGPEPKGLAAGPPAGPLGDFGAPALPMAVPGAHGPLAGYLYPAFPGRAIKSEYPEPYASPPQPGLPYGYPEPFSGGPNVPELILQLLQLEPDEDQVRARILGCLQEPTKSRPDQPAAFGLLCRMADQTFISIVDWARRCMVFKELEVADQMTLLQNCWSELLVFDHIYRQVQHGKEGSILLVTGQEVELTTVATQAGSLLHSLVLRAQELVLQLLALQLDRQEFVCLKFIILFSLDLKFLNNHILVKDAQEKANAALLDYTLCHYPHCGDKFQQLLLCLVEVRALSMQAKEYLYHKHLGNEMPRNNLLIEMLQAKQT
Assay: inhibition of SF-1 LBD-driven luciferase – cell-based, CHO-K1, Gal4-SF-1 LBD, luciferase luminescence, counter-screen for RORA inhibitor project, dose response (AID 611)

Which IC50 reading was recorded for the molecule CCOc1ccc(-c2cc(CCCC(=O)NCc3ccco3)no2)cc1 ?
> 11 µM

Which IC50 reading was recorded for the molecule Cc1ccc(-c2nnc(Nc3ccccc3)o2)cc1 ?
> 3.67 µM

Which IC50 reading was recorded for the molecule O=C(NCc1ccco1)c1ccc2nc3sc4c(c3c(=O)n2c1)CCCC4 ?
> 4.06 µM

Which IC50 reading was recorded for the molecule CCc1nn2cc(-c3ccccc3)nc2s1 ?
> 3.67 µM

Which IC50 reading was recorded for the molecule C=CCOc1nc2c(c(=O)n(C)c(=O)n2C)n1Cc1ccc(Cl)cc1Cl ?
> 33 µM
